systemTested: DNA-dependent protein kinase catalytic subunit (Homo sapiens, UniProt P78527)
Sequence (P78527 whole entry): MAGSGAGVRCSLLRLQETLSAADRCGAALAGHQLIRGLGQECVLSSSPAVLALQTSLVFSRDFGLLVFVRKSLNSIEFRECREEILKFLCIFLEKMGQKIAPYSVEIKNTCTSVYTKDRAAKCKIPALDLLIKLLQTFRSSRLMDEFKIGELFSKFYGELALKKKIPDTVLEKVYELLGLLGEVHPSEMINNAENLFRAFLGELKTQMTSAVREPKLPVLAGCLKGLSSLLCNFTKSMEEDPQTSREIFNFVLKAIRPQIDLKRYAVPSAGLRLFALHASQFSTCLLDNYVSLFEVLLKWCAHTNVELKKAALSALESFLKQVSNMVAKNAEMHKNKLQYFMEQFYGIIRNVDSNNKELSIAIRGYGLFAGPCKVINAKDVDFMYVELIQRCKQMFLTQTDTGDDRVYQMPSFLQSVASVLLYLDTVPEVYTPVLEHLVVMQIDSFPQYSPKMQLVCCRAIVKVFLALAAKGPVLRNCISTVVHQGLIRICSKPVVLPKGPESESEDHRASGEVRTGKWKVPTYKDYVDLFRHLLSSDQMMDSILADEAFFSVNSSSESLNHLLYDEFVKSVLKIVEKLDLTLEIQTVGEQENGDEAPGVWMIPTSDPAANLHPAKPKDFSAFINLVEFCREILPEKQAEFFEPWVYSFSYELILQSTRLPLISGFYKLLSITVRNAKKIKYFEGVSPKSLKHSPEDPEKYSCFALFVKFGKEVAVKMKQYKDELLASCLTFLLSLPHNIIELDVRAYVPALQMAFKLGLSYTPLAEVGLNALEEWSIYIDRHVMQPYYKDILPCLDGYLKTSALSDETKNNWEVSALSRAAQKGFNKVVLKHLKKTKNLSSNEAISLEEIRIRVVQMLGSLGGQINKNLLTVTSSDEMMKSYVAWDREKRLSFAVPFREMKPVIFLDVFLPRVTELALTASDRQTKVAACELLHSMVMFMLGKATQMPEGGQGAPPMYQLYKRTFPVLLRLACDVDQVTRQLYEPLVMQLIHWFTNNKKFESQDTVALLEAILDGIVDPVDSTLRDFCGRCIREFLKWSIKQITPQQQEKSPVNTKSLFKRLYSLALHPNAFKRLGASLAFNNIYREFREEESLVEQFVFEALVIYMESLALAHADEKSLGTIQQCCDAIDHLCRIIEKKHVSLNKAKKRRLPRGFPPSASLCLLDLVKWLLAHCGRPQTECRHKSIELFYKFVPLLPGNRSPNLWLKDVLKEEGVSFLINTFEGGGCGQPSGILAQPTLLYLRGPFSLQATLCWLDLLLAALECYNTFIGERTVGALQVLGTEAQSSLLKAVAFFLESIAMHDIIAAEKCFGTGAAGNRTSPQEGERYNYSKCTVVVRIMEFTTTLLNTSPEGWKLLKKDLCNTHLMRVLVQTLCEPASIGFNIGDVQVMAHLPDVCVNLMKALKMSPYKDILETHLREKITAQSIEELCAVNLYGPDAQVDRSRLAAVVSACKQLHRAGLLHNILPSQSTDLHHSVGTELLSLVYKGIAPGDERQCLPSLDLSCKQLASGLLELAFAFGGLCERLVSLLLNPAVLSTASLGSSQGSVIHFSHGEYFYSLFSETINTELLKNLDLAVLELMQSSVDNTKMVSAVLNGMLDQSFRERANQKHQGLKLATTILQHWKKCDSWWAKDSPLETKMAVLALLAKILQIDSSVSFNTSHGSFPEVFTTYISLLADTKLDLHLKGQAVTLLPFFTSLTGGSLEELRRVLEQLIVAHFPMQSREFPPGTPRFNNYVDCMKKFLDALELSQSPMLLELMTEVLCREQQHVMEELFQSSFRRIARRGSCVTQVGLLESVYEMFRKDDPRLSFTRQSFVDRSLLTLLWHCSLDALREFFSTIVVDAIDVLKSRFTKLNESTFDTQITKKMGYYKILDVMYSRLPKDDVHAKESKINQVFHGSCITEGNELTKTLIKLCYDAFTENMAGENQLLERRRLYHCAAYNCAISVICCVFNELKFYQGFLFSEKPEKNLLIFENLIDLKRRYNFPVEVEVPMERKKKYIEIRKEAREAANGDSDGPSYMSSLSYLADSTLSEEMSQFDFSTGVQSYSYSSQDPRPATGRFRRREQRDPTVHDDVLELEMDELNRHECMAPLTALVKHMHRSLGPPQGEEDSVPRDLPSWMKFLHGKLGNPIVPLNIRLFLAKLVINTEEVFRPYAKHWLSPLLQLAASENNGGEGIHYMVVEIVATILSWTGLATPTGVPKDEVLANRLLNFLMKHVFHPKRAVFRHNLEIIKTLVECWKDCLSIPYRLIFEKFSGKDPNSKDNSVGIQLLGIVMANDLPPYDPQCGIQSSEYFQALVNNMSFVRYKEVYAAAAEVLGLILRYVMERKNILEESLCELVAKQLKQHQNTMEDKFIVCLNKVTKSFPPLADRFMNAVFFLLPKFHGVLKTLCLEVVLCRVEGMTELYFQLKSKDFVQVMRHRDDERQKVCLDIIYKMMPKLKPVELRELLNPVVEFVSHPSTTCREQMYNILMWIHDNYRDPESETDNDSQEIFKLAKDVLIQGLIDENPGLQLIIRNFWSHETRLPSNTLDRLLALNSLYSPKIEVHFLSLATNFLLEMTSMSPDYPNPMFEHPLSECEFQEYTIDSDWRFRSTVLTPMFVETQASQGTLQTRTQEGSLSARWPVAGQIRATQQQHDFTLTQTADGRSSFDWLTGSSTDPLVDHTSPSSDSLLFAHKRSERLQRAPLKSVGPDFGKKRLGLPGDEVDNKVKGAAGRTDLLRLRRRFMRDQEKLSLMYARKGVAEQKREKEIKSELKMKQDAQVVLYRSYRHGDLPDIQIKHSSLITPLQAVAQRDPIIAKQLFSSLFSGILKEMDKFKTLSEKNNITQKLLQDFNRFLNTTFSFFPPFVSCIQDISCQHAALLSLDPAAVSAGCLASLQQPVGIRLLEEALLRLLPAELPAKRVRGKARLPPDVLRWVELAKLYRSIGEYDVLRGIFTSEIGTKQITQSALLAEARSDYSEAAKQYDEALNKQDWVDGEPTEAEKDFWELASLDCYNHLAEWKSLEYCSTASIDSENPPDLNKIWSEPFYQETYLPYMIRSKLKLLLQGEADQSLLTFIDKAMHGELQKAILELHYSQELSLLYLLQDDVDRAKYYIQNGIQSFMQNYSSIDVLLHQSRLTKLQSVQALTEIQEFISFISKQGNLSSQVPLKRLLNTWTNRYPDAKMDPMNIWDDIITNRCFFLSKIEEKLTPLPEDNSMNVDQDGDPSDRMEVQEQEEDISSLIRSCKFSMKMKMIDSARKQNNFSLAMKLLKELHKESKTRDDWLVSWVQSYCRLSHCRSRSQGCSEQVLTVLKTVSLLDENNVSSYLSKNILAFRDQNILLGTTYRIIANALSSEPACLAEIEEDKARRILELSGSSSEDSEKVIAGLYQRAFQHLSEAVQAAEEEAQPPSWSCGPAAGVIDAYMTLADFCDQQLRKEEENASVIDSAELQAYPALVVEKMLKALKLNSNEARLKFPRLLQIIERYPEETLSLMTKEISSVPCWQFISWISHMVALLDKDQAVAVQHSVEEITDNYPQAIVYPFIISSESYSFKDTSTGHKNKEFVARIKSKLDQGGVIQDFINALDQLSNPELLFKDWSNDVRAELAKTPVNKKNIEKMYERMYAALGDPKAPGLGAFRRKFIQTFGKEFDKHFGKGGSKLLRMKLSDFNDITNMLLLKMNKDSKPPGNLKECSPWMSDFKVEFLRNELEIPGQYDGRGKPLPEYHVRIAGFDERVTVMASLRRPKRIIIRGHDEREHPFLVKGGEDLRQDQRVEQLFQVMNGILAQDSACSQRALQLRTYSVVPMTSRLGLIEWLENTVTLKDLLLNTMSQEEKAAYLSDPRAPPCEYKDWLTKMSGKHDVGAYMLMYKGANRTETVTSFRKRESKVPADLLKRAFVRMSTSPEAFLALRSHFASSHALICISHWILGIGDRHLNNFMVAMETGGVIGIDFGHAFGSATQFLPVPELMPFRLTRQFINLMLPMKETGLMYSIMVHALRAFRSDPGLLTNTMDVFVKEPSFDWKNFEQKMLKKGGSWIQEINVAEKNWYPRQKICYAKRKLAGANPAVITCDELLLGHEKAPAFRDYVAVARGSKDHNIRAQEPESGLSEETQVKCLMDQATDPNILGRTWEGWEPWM
procedureText: Inhibition of DNA dependent protein kinase isolated from HeLa cells
recordedMetric: IC50 (µM)

Before answering, review these 5 worked examples.
O=c1cc(N2CCOCC2)c2cc3ccccc3cc2o1 :: 3.24
COc1cccc2c(N3CCOCC3)cc(=O)oc12 :: 10.9
O=c1cc(N2CCC(O)C2)oc2c1ccc1ccccc12 (stereo unspecified) :: 9.27
O=c1cc(N2CC=CC2)nc2c3ccccc3ccn12 :: 2.81
O=c1cc(N2CCOCC2)c2ccccc2o1 :: 4.82

A. O=c1cc(N2CCOCC2)c2c(ccc3ccccc32)o1
B. O=c1cc(N2CC[S+]([O-])CC2)oc2c(-c3ccccc3)cccc12
// compare measured IC50, left A , right B , return larger Answer by stating the label of the chosen item.
B
(B: 5.71 µM, A: 1.9 µM)

I. Cc1cccc2c(=O)cc(N3CCOCC3)oc12
II. O=c1cc(NCC(O)CO)nc2c3ccccc3ccn12 (stereo unspecified)
III. O=c1cc(-c2ccccc2)oc2c1ccc1ccccc12
IV. O=c1cc(N2CCOCC2)oc2cc3ccccc3cc12
Put the items in sequence by IC50, from largest down. Your task in answering is to list the labels in the requested order.
II, III, I, IV

====

systemTested: Phosphatidylinositol 4,5-bisphosphate 3-kinase catalytic subunit alpha isoform (Homo sapiens)
Sequence (P42336 whole entry, canonical isoform): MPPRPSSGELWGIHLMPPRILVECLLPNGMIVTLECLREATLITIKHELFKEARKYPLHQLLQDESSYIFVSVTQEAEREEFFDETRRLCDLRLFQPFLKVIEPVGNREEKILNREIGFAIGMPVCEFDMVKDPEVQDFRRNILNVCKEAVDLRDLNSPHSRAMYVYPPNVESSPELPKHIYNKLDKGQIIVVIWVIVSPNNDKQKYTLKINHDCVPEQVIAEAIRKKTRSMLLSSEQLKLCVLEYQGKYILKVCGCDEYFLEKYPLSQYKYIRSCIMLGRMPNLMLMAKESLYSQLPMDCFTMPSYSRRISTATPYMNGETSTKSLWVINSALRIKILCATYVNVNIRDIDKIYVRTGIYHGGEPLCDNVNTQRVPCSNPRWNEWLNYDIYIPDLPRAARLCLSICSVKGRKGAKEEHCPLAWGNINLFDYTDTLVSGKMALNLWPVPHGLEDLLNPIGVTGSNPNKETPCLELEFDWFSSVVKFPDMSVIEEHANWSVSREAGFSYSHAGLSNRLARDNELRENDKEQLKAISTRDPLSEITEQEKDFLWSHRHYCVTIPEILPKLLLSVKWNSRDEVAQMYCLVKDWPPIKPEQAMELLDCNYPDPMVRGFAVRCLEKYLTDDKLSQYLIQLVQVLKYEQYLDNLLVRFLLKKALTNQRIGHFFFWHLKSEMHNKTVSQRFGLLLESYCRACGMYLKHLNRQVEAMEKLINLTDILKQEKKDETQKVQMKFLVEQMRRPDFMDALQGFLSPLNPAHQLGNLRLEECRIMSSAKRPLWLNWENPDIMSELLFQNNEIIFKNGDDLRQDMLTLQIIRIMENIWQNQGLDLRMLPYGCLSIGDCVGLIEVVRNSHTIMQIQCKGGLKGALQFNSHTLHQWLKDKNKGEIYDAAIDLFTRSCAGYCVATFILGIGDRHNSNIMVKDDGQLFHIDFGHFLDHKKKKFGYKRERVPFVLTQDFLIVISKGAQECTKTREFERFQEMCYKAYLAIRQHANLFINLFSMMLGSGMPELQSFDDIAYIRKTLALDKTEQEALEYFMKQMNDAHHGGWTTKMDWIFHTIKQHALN
procedureText: Inhibition of Phosphatidylinositol 3-kinase
recordedMetric: IC50

Before answering, review these 3 worked examples.
O=c1cc(N2CCCCC2)oc2c(-c3ccccc3)cccc12 :: > 100 µM
O=c1cc(N2CCOCC2)nc2c3ccccc3ccn12 :: > 100 µM
CC1CN(c2cc(=O)c3ccc4ccccc4c3o2)CCO1 (centres undefined) :: 2.4 µM

Then there is this compound:
Which measured IC50 value corresponds to `O=c1cc(N2CCSCC2)oc2c(-c3ccccc3)cccc12` ?
> 100 µM

====

systemTested: DNA-dependent protein kinase catalytic subunit (Homo sapiens)
procedureText: Inhibition of DNA dependent protein kinase isolated from HeLa cells
recordedMetric: IC50 (µM)

Before answering, review these 2 worked examples.
Cc1ccc2oc(=O)cc(N3CCOCC3)c2c1 :: 5.35
COc1ccc2oc(=O)cc(N3CCOCC3)c2c1 :: 1.75

1. C[C@@H]1CN(c2cc(=O)n3ccc4ccccc4c3n2)C[C@H](C)O1
2. O=c1cc(N2CCOCC2)nc2c3ccccc3ccn12
// compare: 1 vs 2 , metric IC50, want the smaller Answer by stating the label of the chosen item.
2
(2: 0.28 µM, 1: 3.25 µM)

====

systemTested: Serine-protein kinase ATM (Homo sapiens, UniProt Q13315)
procedureText: Inhibition of ATM kinase using rabbit polyclonal antisera
Design: species or system Oryctolagus cuniculus
assayConditions: target entry is the homologue from another species
pIC50: −log10 of the molar value.
recordedMetric: pIC50

Which measured pIC50 value corresponds to O=c1cc(N2CCOCC2)oc2c(-c3ccccc3)cccc12 [LY-294002] ?
< 4.00

====

systemTested: DNA-dependent protein kinase catalytic subunit (Homo sapiens)
procedureText: Inhibition of DNA dependent protein kinase isolated from HeLa cells
recordedMetric: IC50

Before answering, review these 5 worked examples.
O=c1cc(N(CCO)Cc2ccccc2)nc2c3ccccc3ccn12 :: > 10 µM
CN1CCN(c2cc(=O)c3ccc4ccccc4c3o2)CC1 :: > 10 µM
O=c1cc(N2CCC[C@H](CO)C2)oc2c1ccc1ccccc12 :: > 10 µM
O=c1cc(-c2ccncc2)oc2c1ccc1ccccc12 :: > 10 µM
O=c1cc(N2CC[C@@H](O)C2)nc2c3ccccc3ccn12 :: 6.49 µM

Which measured IC50 value corresponds to O=c1cc(NCC2CCCO2)oc2c1ccc1ccccc12 (stereo not given) ?
> 10 µM

Which measured IC50 value corresponds to `O=c1cc(N2CCCCC2)oc2c1ccc1ccccc12` ?
3.81 µM

Which measured IC50 value corresponds to `O=c1cc(N(CCO)CCO)nc2c3ccccc3ccn12` ?
> 10 µM

Which measured IC50 value corresponds to `O=c1cc(N2CCOCC2)c2cc(Cl)ccc2o1` ?
3.27 µM

Which measured IC50 value corresponds to `O=c1cc(-c2cccnc2)oc2c1ccc1ccccc12` ?
1.92 µM

Which measured IC50 value corresponds to `O=c1cc(NCCO)nc2c3ccccc3ccn12` ?
> 10 µM

Which measured IC50 value corresponds to `O=c1cc(N2CCCCC2)c2ccccc2o1` ?
8.81 µM

Which measured IC50 value corresponds to `O=c1cc(N2CCSCC2)oc2c(-c3ccccc3)cccc12` ?
1.61 µM

Which measured IC50 value corresponds to `C#CCCN(C)c1cc(=O)n2ccc3ccccc3c2n1` ?
> 10 µM

Which measured IC50 value corresponds to `O=c1cc(-c2cccc([N+](=O)[O-])c2)oc2c1ccc1ccccc12` ?
> 10 µM

Which measured IC50 value corresponds to CC(O)CNc1cc(=O)n2ccc3ccccc3c2n1 (stereo not given) ?
> 10 µM

Which measured IC50 value corresponds to `O=c1cc(-c2ccccc2F)oc2c1ccc1ccccc12` ?
8.59 µM
